Origin of measurements: ChEMBL document CHEMBL3507680

Property: cytotoxicity at 70.5 h; scope: individual compounds
# protocol-notes: Human HepG2 cell viability assay in 384 well format
# Format: toxicity, cell-based
# Set-up: dose 125 nL, time 70.5 hour; concentration not given beside the values
# protocol-conditions: HepG2 cells, read-out: Inhibition
I only need the number, in %, no unit after it.

Consider the following illustrative entries.
# compound, test-result
measured = [
    ("CC(=O)NCC1CCN(C(=O)c2c(C)[nH]c3ccc(Cl)cc23)CC1", -0.185),
    ("COCCN(Cc1cccc(OCCO)c1)Cc1ccccc1F", -2.88),
    ("CCN1CCN(CC(O)c2cc(Cl)ccc2Cl)CC1 (configuration not stated)", -8.52),
]

What value of cytotoxicity at 70.5 h has been recorded for this entry: CCC(NS(C)(=O)=O)c1ccccc1C (configuration not stated)
10.1

Same thing, different compound: CC(C)(NC(=O)NCc1cccc(Br)c1)C(=O)O
-9.51

----------
# protocol-notes: Human HepG2 cell viability assay in 384 well format
# Format: toxicity, cell-based
# Design: dose 125 nL, time 70.5 hour; concentration not given beside the values
# protocol-conditions: HepG2 cells, read-out: Inhibition
experimental-endpoint: cytotoxicity at 70.5 h (%)
I only need the number, in %, no unit after it.

# compound, test-result
rows = [
    ("O=C(N[C@@H]1CCN(Cc2ccc(F)cc2F)C[C@H]1O)c1cccnc1", 8.03),
]

What value of cytotoxicity at 70.5 h has been recorded for this entry: O=C(CCNC(=O)C1=Cc2ccccc2OC1)Nc1cccnc1
-6.01

Same thing, different compound: COc1c(CNCc2ccc(C(=O)NC3CC3)cc2)c(C)nn1C
-3.83

Same thing, different compound: O=C(NCC1Cn2nnc(-c3ccsc3)c2CO1)N1CCCC1 (configuration not stated)
-7.85

Same thing, different compound: O=C1CC(c2ccc(C(=O)O)cc2)c2cnn(Cc3ccco3)c2N1 (configuration not stated)
-25.8

Same thing, different compound: CN(CCO)c1nc(-c2ccccn2)nc2c1CCNC2
-0.45

Same thing, different compound: Cc1ccc(NC(=O)CNc2ccn(CC(N)=O)n2)c(Cl)c1
-7.52

----------
# protocol-notes: Human HepG2 cell viability assay in 384 well format
# Assay type: toxicity, cell-based
# Design: dose 125 nL, time 70.5 hour; concentration not given beside the values
# protocol-conditions: HepG2 cells, read-out: Inhibition
experimental-endpoint: cytotoxicity at 70.5 h
Record the result as a number with its unit.

Consider the following illustrative entries.
# compound, cytotoxicity at 70.5 h
records = [
    ("CC(C)(CCS(C)(=O)=O)CNC(=O)NC1CCCC1(C)C (stereo unspecified)", "-6.64%"),
    ("CN(C)C1(CNC(=O)C2CCCN2Cc2ccc(F)cc2)CCOCC1 (stereo unspecified)", "6.73%"),
]

What value of cytotoxicity at 70.5 h has been recorded for this entry: CCCNC(=O)NC(=O)CN1CCN(Cc2nccn2CC)CC1
-9.22%

Same thing, different compound: COc1c(C(=O)NCC(C)Sc2ccccc2)c(C)nn1C (stereo unspecified)
-5.69%

Same thing, different compound: CNc1cc(N2CCCC2CNCc2cccc(C#N)c2)ncn1 (stereo unspecified)
1.28%

Same thing, different compound: COc1cccc(OC)c1OCCn1c(C)c(C)oc1=O
0.271%

----------
# protocol-notes: Human HepG2 cell viability assay in 384 well format
# Format: toxicity, cell-based
# Set-up: dose 125 nL, time 70.5 hour; concentration not given beside the values
# protocol-conditions: HepG2 cells, read-out: Inhibition
experimental-endpoint: cytotoxicity at 70.5 h (%)
I only need the number, in %, no unit after it.

# compound, units-of-measure, cytotoxicity at 70.5 h
rows = [
    ("CC(=O)N1CCC2(CC1)CN(C(=O)c1cccc3[nH]ccc13)C2", "%", -11.6),
    ("CCC[C@H]1CN(Cc2ccccc2C#N)C[C@@H]1NS(C)(=O)=O", "%", -6.89),
    ("CN(CC1CCOCC1)C(=O)NCCCN1CCCCC1", "%", -3.15),
    ("CCN1CCC2(CC1)CC(NCc1ccncc1)c1ccccc1O2 (configuration not stated)", "%", -20.8),
    ("CC(C)C(Sc1nnc(NC2CC2)s1)C(=O)NCc1cccnc1 (configuration not stated)", "%", -15.5),
]

What value of cytotoxicity at 70.5 h has been recorded for this entry: NC(=O)C1(CCCc2ccccn2)CCCN(Cc2ncc[nH]2)C1 (configuration not stated)
1.81

Same thing, different compound: CN1CCN(C(=O)c2cc3sccc3n2Cc2ccccc2F)CC1
-9.9

Same thing, different compound: COc1c(Br)c(C(=O)NC2CCCCC2)nn1C
-15

Same thing, different compound: O=C(CN(C1=NCCCC1)c1ccccc1)c1ccc2c(c1)OCCO2
-16.3

Same thing, different compound: CC(C)C(Sc1nnnn1C1CC1)C(=O)NCc1cccnc1 (configuration not stated)
-7.01

Same thing, different compound: Cn1ncc(N2CCC(CNC(=O)[C@@H](N)C3CCCCC3)CC2)cc1=O
3.03

Same thing, different compound: Cc1n[nH]c(C)c1C1CCCN1C(=O)NCCSC(C)(C)C (configuration not stated)
-7.87

Same thing, different compound: O=C(CCn1cnnn1)N1CCCC(CO)(CCc2ccccc2)C1 (configuration not stated)
18

Same thing, different compound: c1cncc(CN2CCC(c3ccnc4nccn34)C2)c1 (configuration not stated)
-1.1

Same thing, different compound: CCNc1nnc(SC(C(=O)NCc2cccnc2)C(C)C)s1 (configuration not stated)
-14.3

Same thing, different compound: N#Cc1ccc(N2CCC3(CCC(=O)N3Cc3ccncc3)CC2)nc1
-6.82

Same thing, different compound: CN(C(=O)c1cccc(NCC(=O)O)c1)C(C1CC1)C1CC1
-8.7

----------
Property: cytotoxicity at 70.5 h; scope: individual molecules
# protocol-notes: Human HepG2 cell viability assay in 384 well format
# Assay type: toxicity, cell-based
# Parameters: dose 125 nL, time 70.5 hour; concentration not given beside the values
# protocol-conditions: HepG2 cells, read-out: Inhibition

Consider the following illustrative entries.
# molecule, cytotoxicity at 70.5 h
measured = [
    ("CCc1nccn1-c1cccc(C2CCCN2S(=O)(=O)N(C)C)n1 (centres undefined)", "-7.54%"),
    ("CN(Cc1ccsc1)C(=O)c1cccc(S(=O)(=O)NC(C)(C)C)c1", "-2.95%"),
    ("Cc1cnc(-c2nc(O)c3c(n2)CN(C(=O)C2CCCC2)CC3)cn1", "-1.77%"),
    ("Cc1cc(O)nc(C2CCCNC2)n1 (centres undefined)", "-3.99%"),
]

Next molecule, cytotoxicity at 70.5 h to be filled in.
What value of cytotoxicity at 70.5 h has been recorded for this entry: Cc1ccc(OCCCNC(=O)NC(C)c2nncn2C)cc1 (centres undefined)
-3.66%

----------
# protocol-notes: Human HepG2 cell viability assay in 384 well format
# Type: toxicity, cell-based
# Parameters: dose 125 nL, time 70.5 hour; concentration not given beside the values
# protocol-conditions: HepG2 cells, read-out: Inhibition
experimental-endpoint: cytotoxicity at 70.5 h (%)
I only need the number, in %, no unit after it.

# molecule, test-result
measured = [
    ("COc1ccc(C2CCCN2C(=O)NCCn2ccnc2)cc1OC (configuration not stated)", 0.318),
]

What value of cytotoxicity at 70.5 h has been recorded for this entry: COCCN1CCC2(COCc3cnc(-c4ccccc4)nc32)C1 (configuration not stated)
-8.87

Same thing, different molecule: OCC1(NCc2cccc(-n3cccn3)c2)CCOCC1
-1.42

Same thing, different molecule: CCn1ncc2c1CN(C(=O)Cc1ccccn1)CC2COC (configuration not stated)
-3.07

Same thing, different molecule: CCN(CC)Cc1cn2c(n1)CN(Cc1c(C)noc1C)CC2
0.0103

Same thing, different molecule: CCOc1ccc(CCC(=O)N2CC[C@H]3C(=O)NCCO[C@H]3C2)cc1
-10.6

Same thing, different molecule: Cn1c(CCC(=O)N2CCCC3(CC2)CNC(=O)O3)nc2cccnc21 (configuration not stated)
44

Same thing, different molecule: CN(C)S(=O)(=O)Nc1ccc(-n2nccc2C(F)(F)F)cc1
6.87

Same thing, different molecule: Cc1ccc(CN(C)C(=O)CN2CCOC(Cn3cncn3)C2)o1 (configuration not stated)
9.12

Same thing, different molecule: CSc1[nH]c(=O)c(C(=O)N2CCCC2C2CCCC2)cc1C#N (configuration not stated)
-5.31

----------
Property: cytotoxicity at 70.5 h; scope: individual compounds
# protocol-notes: Human HepG2 cell viability assay in 384 well format
# Format: toxicity, cell-based
# Set-up: dose 125 nL, time 70.5 hour; concentration not given beside the values
# protocol-conditions: HepG2 cells, read-out: Inhibition
I only need the number, in %, no unit after it.

Consider the following illustrative entries.
# compound, cytotoxicity at 70.5 h / %
data = [
    ("Cc1ccc(CN2CCC3(CCCN(Cc4ccc(F)c(F)c4)C3)C2)o1 (stereo unspecified)", 0.359),
    ("CN(C)c1nc(N)nc(CN2CCC(c3ccccc3)CC2)n1", -10.6),
    ("CCn1ccnc1CN(C)C1CCCN(CCc2ccccc2)C1 (stereo unspecified)", 1.27),
    ("CCOc1ccc(S(=O)(=O)NCCCc2ccc(N(C)C)cc2)cc1C", -1.63),
    ("C[C@@H]1CN(CC(C)(C)N2CCCCC2)CC[C@@]1(O)C1CC1", -5.05),
    ("COc1ccc(C)cc1C(=O)N1CCCC(n2nc(C)nc2C)C1 (stereo unspecified)", -8.26),
    ("CCN(CC1CCOC1)C(=O)NCc1ccc(-n2cncn2)nc1 (stereo unspecified)", -1.6),
    ("Cc1nc(C)n(CC2CCCN2Cc2cn(-c3ccccc3)nn2)n1 (stereo unspecified)", 2.44),
    ("CC(=O)Nc1ccc(SCCCC(=O)NCC2CCCO2)nn1 (stereo unspecified)", -11.3),
    ("CCN(C(=O)c1cccc2c1OCO2)c1ccccc1", -4.98),
]

Next compound, cytotoxicity at 70.5 h to be filled in.
What value of cytotoxicity at 70.5 h has been recorded for this entry: Cc1csc2c(C3CCCN(C(=O)Cn4cncn4)C3)nc(C)n12 (stereo unspecified)
-1.76
